B1: TPR 5TU (parent)
chain: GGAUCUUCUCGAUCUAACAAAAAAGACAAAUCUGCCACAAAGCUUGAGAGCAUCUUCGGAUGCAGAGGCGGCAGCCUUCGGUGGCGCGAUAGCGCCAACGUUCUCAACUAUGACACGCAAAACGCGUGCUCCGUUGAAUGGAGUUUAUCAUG

- Variants of: B1
- Experiment: polymerase ribozyme fitness, log enrichment relative to wild type (log ratio); higher = more active; in vitro selection for triplet polymerase activity
This sample holds only a part of the variants without activity.
Value Type: polymerase ribozyme fitness (log ratio)
Give bare numbers.

Solved entries:
> print(dat)
                 variant.key  numeric.value
1                  C57U C95G          -2.96
2      A52C G62C A120G G140U           -4.1
3        A41C G48C C57U G84A             -2
4             A41U G46U A52U          -4.03
5  C18G G34U C57U C96U A147U          -2.53

Hey, quick one: what's polymerase ribozyme fitness (log ratio) for each of these?
1. C63U C85U A113U U146A
2. C18G G92U U130G
3. U31A C51U A73G C95G

[-3.03, -4.01, -3.09]
